# MEASUREMENT TARGET: T1, 4H3130-AA
# T1 chain: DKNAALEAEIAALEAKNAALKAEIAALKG
# METHOD DESCRIPTION: two-hybrid library CCmax;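 further: natural log of median RNA to DNA barcode read ratio; higher means stronger binding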
# CONDITIONS: mean of both orientations
ENDPOINT LABEL: interaction score

>  <BINDER>
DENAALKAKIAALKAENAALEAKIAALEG [4H1877-AA]

>  <RESULT>
1.82

$$$$
>  <BINDER>
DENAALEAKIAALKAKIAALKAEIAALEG [4H1385-AA]

>  <RESULT>
-0.837

$$$$
>  <BINDER>
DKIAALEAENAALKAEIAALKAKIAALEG [4H2253-AA]

>  <RESULT>
-1.14

$$$$
>  <BINDER>
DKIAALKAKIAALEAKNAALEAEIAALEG [4H2865-AA]

>  <RESULT>
-0.487

$$$$
>  <BINDER>
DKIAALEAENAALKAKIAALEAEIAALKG [4H2274-AA]

>  <RESULT>
-1.87

$$$$
>  <BINDER>
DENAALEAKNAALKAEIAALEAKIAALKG [4H1478-AA]

>  <RESULT>
-0.211

$$$$
>  <BINDER>
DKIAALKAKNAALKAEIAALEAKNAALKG [4H3016-AA]

>  <RESULT>
-0.405

$$$$
>  <BINDER>
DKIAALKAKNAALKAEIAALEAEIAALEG [4H3009-AA]

>  <RESULT>
-0.967

$$$$
>  <BINDER>
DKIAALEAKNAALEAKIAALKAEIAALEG [4H2473-AA]

>  <RESULT>
-0.173

$$$$
>  <BINDER>
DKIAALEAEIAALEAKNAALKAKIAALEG [4H2109-AA]

>  <RESULT>
-1.05

$$$$
>  <BINDER>
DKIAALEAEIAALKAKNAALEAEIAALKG [4H2162-AA]

>  <RESULT>
-0.375

$$$$
>  <BINDER>
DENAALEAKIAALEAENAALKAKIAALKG [4H1310-AA]

>  <RESULT>
0.822

$$$$
>  <BINDER>
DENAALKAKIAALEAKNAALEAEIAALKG [4H1842-AA]

>  <RESULT>
0.65

$$$$
>  <BINDER>
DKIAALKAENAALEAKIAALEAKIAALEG [4H2725-AA]

>  <RESULT>
-0.815

$$$$
>  <BINDER>
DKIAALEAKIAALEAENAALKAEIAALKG [4H2330-AA]

>  <RESULT>
0.306

$$$$

Data credit: paper PMC10397247
